The entries below come with measured apparent KD of K4 kissing-loop reporter values attached.
Tested on: K4 kissing-loop RNA reporter;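 further: bound reporter read as fluorescence of individual clusters on recovered sequencing chips by microscopy, with normalized cluster intensities fitted with a binding model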
assay-notes: apparent KD of K4 kissing-loop reporter; higher = weaker reporter binding
experimental-setup: Eterna round: R107; input ligand: arginine 13.2 mM
Answer in µM, number only, no unit symbol.

{"columns": ["sequence", "study-system", "unit-label", "apparent KD of K4 kissing-loop reporter"],
 "data": [
  ["UCUUUAGUAUAUGAUACCAGCAGUGAGAGACAGGAAGUAUAGUGAUGUUAUAUGAGAGAAUGCCCUUGGCAGCGUGUGCGGUGGG [SSTheophylB.T]", "K4 kissing-loop RNA reporter", "µM", 0.103],
  ["UGUGAUGAGUAGAGUGAUGUUUUGAAGGAUACCAGAGUGUUGUUAUUCCCUUGGCAGCUUGAGUGAUGUUUGAUGUUGUUGUAGU [zizmullin]", "K4 kissing-loop RNA reporter", "µM", 0.213],
  ["AAUAAAAUCACGGCCGCCACUGAUGCUAAUAUUAGCAGUGAUGUUGCUAUGUAGAUUUUAUUUAACAGGACCGGGUGAAUAUUUA [JR_SSTryptoB_Sub025]", "K4 kissing-loop RNA reporter", "µM", 0.124],
  ["AAGUAGUCCCUUGUUGUCAUCGAAGAUGAACGAGGACCGGUACGGCCGCCACUCGGAGUGAUGUUCCGAUGGCUGCAAAAUAAAA [MatMod 22 - Jieux - Exclusion - Tryptophan A]", "K4 kissing-loop RNA reporter", "µM", 0.0889],
  ["AGAGUUAUAUGAGGAUAUGGGAUAGUAACUGAGUGAGUUAUAGUGUAGUUUGUUUAGUGAUGUUAUUUAGAAGGCGUGAGUGAUG [wwwsemullin]", "K4 kissing-loop RNA reporter", "µM", 0.121]
]}

Return reported apparent KD of K4 kissing-loop reporter; argument: AGGUCACUACUACAGUGAUGUUGUGGAGAGCAGGAUAUGCAGAAAUGCAGAAGGGCUCGCUCUCAGUGACCGAAUGAAACAUUCA [Omei KL FMN A SS A v8]
0.724

Return reported apparent KD of K4 kissing-loop reporter; argument: GGAUCCACCAGUGAUGUUGGAGAAAACUCCGAGGAUAUGACGAAAGUCAGAAGGUGGUAGACUGGACAAAGUCCGGUCGGAUCCA [FmnA 24 #SwitchBubble #K4Early]
0.0833

Return reported apparent KD of K4 kissing-loop reporter; argument: ACCAUCAAAGAUGGCCAGGACUCAACUGAUACCAGAGUGGAAACACUCCCUUGGCAGCAGGUGAGUGAUGUUCACGAGUCCUGGA [Omel KL Theo A SS B v8]
0.786

Return reported apparent KD of K4 kissing-loop reporter; argument: AAGUGUCAUUAGACACAGACUACAAUAAACUAGGAUAUGCUGAUAAGCAGAAGGAGUGAUGUUCCUUUCAAGUAGUCAAUUAAAU [FmnAX 20 Mat Inspired #SwitchBubble #StaticStem #K4Late]
0.12

Return reported apparent KD of K4 kissing-loop reporter; argument: AUUAAUUUCAGAGGAUAUCGUAAUUUUAUUUAAUUUAUUCAUUUGUGCAGUGAUGUUGCUAAUAUUCGAGAAGGCUGAUUUAUAA [whbob_Ex_FMNB__2th223]
0.159

Return reported apparent KD of K4 kissing-loop reporter; argument: ACUAGAAAACCAGUGAUGUUGGCCUGGGAUACCAGCUUCUAUUAUAGCCCUUGGCAGCCCUUUAGUACAAGUGACCUUGCGACCG [theeternabot_sameState_KL_Theo_A_9]
0.217
